- Procedure Text: Cytoprotective activity against amyloid beta-induced oxidative stress in mouse Neuro2a cells assessed as cell viability at 250 uM after 6 hrs by MTT assay
- Format: functional
- Test Parameters: N2a, read-out: Activity
The entries below are paired with their reported viability at 250 µM.
The response must be a number in % with no trailing unit.

Examples from the recorded data:
{"columns": ["Molecule", "viability at 250 µM / %"],
 "data": [
  ["O=C(/C=C/c1ccc(O)c(O)c1)c1ccc(O)cc1", 28],
  ["O=C(/C=C/c1ccccc1O)c1ccccc1", 3],
  ["O=C(/C=C/c1ccc(O)c(O)c1)c1cc(O)cc(O)c1", 26]
]}

Request: Consider the molecule shown here: O=C(/C=C/c1ccccc1)c1cccc(O)c1 What is its recorded viability at 250 µM?
Result: 5.9

Request: Consider the molecule shown here: O=C(/C=C/c1ccccc1)c1ccc(O)cc1O [2',4'-DIHYDROXYCHALCONE] What is its recorded viability at 250 µM?
Result: 3.9

Request: Consider the molecule shown here: O=C(/C=C/c1cccc(O)c1O)c1ccc(O)c(O)c1 What is its recorded viability at 250 µM?
Result: 46
